assay-method-text: gradient 5% acetonitrile 3 min, to 50% in 2 min, to 85% in 15 min, held 3 min, 100 µL/min
particulars: column: Zorbax Extend-C18 2.1 x 50 mm; eluents: water / acetonitrile, 0.1% formic acid
quantity-kind: RP-LC retention time (s)
Provide the reading as a plain figure in s.

Check out these entries, answers already filled in.
>  <compound-smiles>
O=C(CN1C(=O)CC(c2cccs2)=Nc2ccccc21)Nc1ccc(F)cc1

>  <RP-LC retention time / s>
928

$$$$
>  <compound-smiles>
COc1cccc(-c2nc(-c3ccc4c(c3)ncn4CCN3CCCC3)no2)c1

>  <RP-LC retention time / s>
653

$$$$
>  <compound-smiles>
Cc1cccc(S(=O)(=O)N2CCC(n3cnnc3C3CC3)CC2)c1

>  <RP-LC retention time / s>
713

$$$$
>  <compound-smiles>
Cc1ccc(-n2ccc(=O)c(-c3nc(-c4ccccc4Cl)no3)n2)cc1

>  <RP-LC retention time / s>
958

$$$$

Task: Recorded RP-LC retention time for Cc1ccc(Nc2ncnc3nc[nH]c23)cc1Cl , please?
Output: 682
